Each recorded value in this set is attributed to patent US20120039802A1.

# TARGET_ENTITY: T1, cMet-Fc fusion protein (extracellular domain of the cMet receptor expressed as an Fc-fusion protein) (human, UniProt P08581 25-932)
# T1 construct: extracellular domain; also called soluble cMet-Fc-fusion protein; soluble cMet receptor; not shown: Fc part
# PROCEDURE_SUMMARY: phage ELISA, cMet-Fc vs TRAIL-Fc
Please use met whenever Protein ELISA (fold over background) is not below 4 fold, and not met whenever it is.

[ask] Quick check, Protein ELISA (fold over background) >= 4 fold? AGDGWCMAWPEICEWLGT [434-E12 peptide-displaying phage (SEQ ID NO: 014)]
[reply] met

[ask] Record GSEYSCRTSRCIFSAP [452-F01 peptide-displaying phage (SEQ ID NO: 006)] ; criterion: Protein ELISA (fold over background) no lower than 4 fold. Met?
[reply] not met

[ask] Has AQGFELWVDHTRNFFIAISP [127-A07 peptide-displaying phage (SEQ ID NO: 469)] a recorded Protein ELISA (fold over background) greater than or equal to 4 fold?
[reply] not met

[ask] Determine whether this binder has Protein ELISA (fold over background) no lower than 4 fold: AGYFHCSGSPWFQCDYYGT [550-G08 peptide-displaying phage (SEQ ID NO: 081)]
[reply] met

[ask] hey, is Protein ELISA (fold over background) for this one >= 4 fold? GSGDPCSPGPSINGHCSVMAP [453-A05 peptide-displaying phage (SEQ ID NO: 382)]
[reply] met

[ask] Answer whether Protein ELISA (fold over background) of AQELFQILEKQMWSDFMEWATP [15-D02 peptide-displaying phage (SEQ ID NO: 474)] is greater than or equal to 4 fold.
[reply] not met

[ask] Is it the case that GSWIICWWDNCGSSAP [571-C05 peptide-displaying phage (SEQ ID NO: 001)] has Protein ELISA (fold over background) reaching or exceeding 4 fold?
[reply] met

[ask] Check if Protein ELISA (fold over background) >= 4 fold (inclusive). Item: GSMNMCDTTDEISPTCHPSAP [441-H01 peptide-displaying phage (SEQ ID NO: 378)]
[reply] not met

[ask] hey, is Protein ELISA (fold over background) for this one >= 4 fold? AQDPGFSKHSMGHGYPSKMNWG [115-G02 peptide-displaying phage (SEQ ID NO: 471)]
[reply] not met

[ask] Quick check, Protein ELISA (fold over background) >= 4 fold? AGHFECPKHQYMCDMPGT [465-D04 peptide-displaying phage (SEQ ID NO: 042)]
[reply] not met

[ask] Tell me whether Protein ELISA (fold over background) is at least 4 fold here: AGETKCSGPPYFYCWMEGT [545-E04 peptide-displaying phage (SEQ ID NO: 093)]
[reply] met

[ask] Reported Protein ELISA (fold over background) at or above 4 fold? AQKTWFLEADLFQMFQEVTWQF [103-C04 peptide-displaying phage (SEQ ID NO: 490)]
[reply] not met

[ask] Item GSLIICWWSWCDKQAP [567-C08 peptide-displaying phage (SEQ ID NO: 009)] with Protein ELISA (fold over background) of 4 fold or above?
[reply] not met

[ask] # bool: Protein ELISA (fold over background) of GDYSECFFEPDSFEVKCYDRDP [545-H12 peptide-displaying phage (SEQ ID NO: 399)] >= 4 fold
[reply] met

[ask] Entry AQMGHHWDVQWDYKLFHVARGD [136-D01 peptide-displaying phage (SEQ ID NO: 473)] : is its Protein ELISA (fold over background) no less than 4 fold?
[reply] not met

[ask] Decide: is the reported value of Protein ELISA (fold over background) for AGMDFCEGFWFLCIGNAT [571-C11 peptide-displaying phage (SEQ ID NO: 035)] equal to or greater than 4 fold?
[reply] not met

[ask] hey, is Protein ELISA (fold over background) for this one >= 4 fold? AGGFACGPPWDICWMFGT [573-F04 peptide-displaying phage (SEQ ID NO: 011)]
[reply] met
